target: DNA polymerase beta (Homo sapiens); experiment: qHTS Assay for Inhibitors of DNA Polymerase Beta; conditions: Pol beta primer extension/strand displacement, fluorescence kinetic; series mostly up to 114 µM
Hit rate of the full screen: of about 340,000 compounds, about 4,500 (1.3%) were called active. About 5% were inconclusive and are not listed. Calls come from the whole dose curve; as a rule, active = well fitted inhibition curve with a large enough effect; inconclusive = small, poorly fitted or top-dose-only effect, or another doubt; inactive = no such curve, though single readings can be large or run the other way. The list comes from a sample in which actives are over-represented; it also holds close analogues and randomly drawn compounds.
Parameter call: string, one of true (1) for active, false (0) for inactive

Below, 5 compounds whose answers are already recorded.
>  <Compound>
O=C(O)c1cc(Cl)c(Cl)cc1C(=O)Nc1cccc2ncccc12

>  <Group Label>
false (0)

$$$$
>  <Compound>
CC(=O)Nc1cc(C(=O)NCc2ccc(F)cc2Cl)ccc1Sc1ccc(Cl)cc1

>  <Group Label>
false (0)

$$$$
>  <Compound>
O=C(NCCSc1ccccc1)c1ccco1

>  <Group Label>
false (0)

$$$$
>  <Compound>
O=c1c2ccccc2c(-c2ccc(Br)cc2)nn1Cc1ccccc1

>  <Group Label>
false (0)

$$$$
>  <Compound>
Nc1nc(NCC(=O)O)nc(N2CCCCCC2)c1[N+](=O)[O-]

>  <Group Label>
false (0)

$$$$

Q: Would you mind telling me which call this test gave `O=C(NCCc1ccco1)c1nn(Cc2ccccc2)c(=O)c2ccccc12` ?
A: true (1)

Q: What did the test return for `O=C(c1cc2cc(Br)cc(Br)c2oc1=O)N1CCOCC1` ?
A: false (0)

Q: For this compound, state the assay outcome: `Cc1cccc(C(=O)c2cccc(C)c2)c1`
A: false (0)

###

target: DNA polymerase beta (Homo sapiens) (UniProt P06746); assay: qHTS Assay for Inhibitors of DNA Polymerase Beta; conditions: Pol beta primer extension/strand displacement, fluorescence kinetic; series mostly up to 114 µM
The whole screen tested about 340,000 compounds, of which about 4,500 (1.3%) were called active. Inconclusive results (about 5%) are left out. Calls follow the shape of the dose curve; as a rule, active = well fitted inhibition curve with a large enough effect; inconclusive = small, poorly fitted or top-dose-only effect, or another doubt; inactive = no such curve, though single readings can be large or run the other way. For the sample, actives were picked, then their nearest neighbours and some compounds at random.
// allowed return values: active, inactive

Take a look at these entries with their results.
>  <Molecule>
CCOc1ccccc1C(=O)NCc1ccc2c(c1)CCN2C(=O)c1ccc(F)cc1

>  <Group Label>
inactive

$$$$
>  <Molecule>
NC(=O)c1c(NC(=O)CSc2nc(N)cc(=O)[nH]2)sc2c1CCCC2

>  <Group Label>
inactive

$$$$
>  <Molecule>
CC(C)CNC(=O)COC(=O)/C=C/c1ccccc1[N+](=O)[O-]

>  <Group Label>
inactive

$$$$
>  <Molecule>
COc1ccc(CC(=O)Nc2nnc3n2CCS3)cc1OC

>  <Group Label>
inactive

$$$$
>  <Molecule>
Cc1ccc(NC(=O)c2ccc(CN3CC(=O)N4CCCCC4C3=O)cc2)c(Cl)c1 (stereo not given)

>  <Group Label>
inactive

$$$$
>  <Molecule>
COc1ccc(NC(=O)CCCN2C(=O)CCn3nc(-c4cn(C)c5ccccc45)cc32)cc1OC

>  <Group Label>
inactive

$$$$
>  <Molecule>
Cc1ccc(C2c3[nH]c4ccccc4c3CCN2C(=O)c2cccc(C)c2)cc1 (stereo not given)

>  <Group Label>
inactive

$$$$
>  <Molecule>
O=C(CSc1nccn1-c1ccc(F)cc1)Nc1cccc2ccccc12

>  <Group Label>
inactive

$$$$

Q: Dear colleague, could you share the recorded outcome for `CC(C)CNC(=O)COC(=O)/C=C/c1ccco1` when you have a moment?
A: active

Q: Fill in: this test's call for `Cc1ccc(C)c(N2CCN(C(=O)Cn3nc(C)c4sc5ccccc5c4c3=O)CC2)c1` is ___
A: inactive
